This listing pairs molecules with measured Average difference in deuterium levels, LOOP 273-294.
Target: ERβ LBD (amino acids 257–502) (Homo sapiens, UniProt Q92731)
Sequence (Q92731 257-502): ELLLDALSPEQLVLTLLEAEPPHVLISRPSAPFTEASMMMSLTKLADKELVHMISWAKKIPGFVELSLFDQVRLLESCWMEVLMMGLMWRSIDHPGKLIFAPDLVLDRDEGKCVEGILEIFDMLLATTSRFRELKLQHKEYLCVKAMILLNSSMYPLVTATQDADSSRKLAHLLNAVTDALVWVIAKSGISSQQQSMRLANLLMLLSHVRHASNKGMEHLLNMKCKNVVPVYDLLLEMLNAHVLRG
Test: Differential HDX mass spectrometry of ERβLBD with and without ligand
Type: binding
Conditions: ERβLBD:ligand 1:10; average of 1, 30, 60, 900, 4200 sec; negative = protection
Numbers only; they are read as %.

Check out these entries, answers already filled in.
molecule: Oc1ccc2c(c1)CC[C@H](c1ccccc1)[C@@H]2c1ccc(OCCN2CCCC2)cc1 [Lasodoxifene, lasofoxifene]
u: %
value-measured: −12
--
molecule: C[C@]12CC[C@@H]3c4ccc(O)cc4C[C@@H](CCCCCCCCC[S+]([O-])CCCC(F)(F)C(F)(F)F)[C@H]3[C@@H]1CC[C@@H]2O (some centres unmarked) [ICI, ICI 182780]
u: %
value-measured: −11
--
molecule: O=C(c1ccc(O)cc1)c1c(-c2ccc(O)cc2)sc2cc(O)ccc12 [compound 88074]
u: %
value-measured: −9
--
molecule: O=C(c1ccc(OCCN2CCCCC2)cc1)c1c(-c2ccc(O)cc2)sc2cc(O)ccc12 [Raloxifene, raloxifene]
u: %
value-measured: −9
--
molecule: C[C@]12CC[C@@H]3c4ccc(O)cc4CC[C@H]3[C@@H]1CC[C@@H]2O [Estradiol, 17β-estradiol]
u: %
value-measured: −9

**Q:** Could you share what Average difference in deuterium levels, LOOP 273-294 was measured for CC/C(=C(/CC)c1ccc(O)cc1)c1ccc(O)cc1 [DES, Diethylstilbestrol] , tested on ERβ LBD (amino acids 257–502) (Homo sapiens, UniProt Q92731)?
**A:** −12

**Q:** # repeat for CC/C(=C(\c1ccc(O)cc1)c1ccc(OCCN(C)C)cc1)c1ccccc1 [4-hydroxy tamoxifen, 4-hydroxytamoxifen]
**A:** −12

**Q:** # repeat for O=C(c1ccc(OCCN2CCCC2)cc1)c1c(-c2ccc(O)cc2)sc2cc(O)ccc12 [compound 117018]
**A:** −8

###

Biological target: ERβ (Homo sapiens)
Sequence (Q92731 whole entry): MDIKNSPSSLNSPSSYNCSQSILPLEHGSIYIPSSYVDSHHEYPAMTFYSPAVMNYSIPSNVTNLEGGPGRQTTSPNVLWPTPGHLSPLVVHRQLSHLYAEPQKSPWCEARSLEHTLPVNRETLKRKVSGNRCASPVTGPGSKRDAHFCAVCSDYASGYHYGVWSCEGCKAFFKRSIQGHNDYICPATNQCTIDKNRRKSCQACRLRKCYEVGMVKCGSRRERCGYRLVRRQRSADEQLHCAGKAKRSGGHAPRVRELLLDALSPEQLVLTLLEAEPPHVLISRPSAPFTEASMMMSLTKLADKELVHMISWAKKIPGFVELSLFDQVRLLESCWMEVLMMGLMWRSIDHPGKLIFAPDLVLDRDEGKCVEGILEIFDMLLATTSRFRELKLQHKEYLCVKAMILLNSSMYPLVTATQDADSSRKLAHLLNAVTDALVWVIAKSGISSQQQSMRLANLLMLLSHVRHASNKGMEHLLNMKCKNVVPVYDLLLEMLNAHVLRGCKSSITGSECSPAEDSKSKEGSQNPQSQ
value-kind: pKi
Please note pKi is a logarithmic value: minus log10 of concentration in mol/L. Answer with that number alone.

**Q:** Could you share what pKi was measured for O=C(c1ccc(OCCN2CCCC2)cc1)c1c(-c2ccc(O)cc2)sc2cc(O)ccc12 [compound 117018] , tested on ERβ (Homo sapiens)?
**A:** 8.89

###

Target: ERβ LBD (amino acids 257–502) (Homo sapiens)
Test: Differential HDX mass spectrometry of ERβLBD with and without ligand
Assay type: binding
Details: ERβLBD:ligand 1:10; average of 1, 30, 60, 900, 4200 sec; negative = protection
value-kind: Average difference in deuterium levels, LOOP 282-295 (%)
Numbers only; they are read as %.

Check out these entries, answers already filled in.
compound: Oc1ccc2c(c1)CC[C@H](c1ccccc1)[C@@H]2c1ccc(OCCN2CCCC2)cc1 [Lasodoxifene, lasofoxifene]
value-measured: −9
//
compound: O=C(c1ccc(OCCN2CCCC2)cc1)c1c(-c2ccc(O)cc2)sc2cc(O)ccc12 [compound 117018]
value-measured: −8
//
compound: O=C(c1ccc(O)cc1)c1c(-c2ccc(O)cc2)sc2cc(O)ccc12 [compound 88074]
value-measured: −7

**Q:** Given the compound CC/C(=C(\c1ccc(O)cc1)c1ccc(OCCN(C)C)cc1)c1ccccc1 [4-hydroxy tamoxifen, 4-hydroxytamoxifen] , what is its reported Average difference in deuterium levels, LOOP 282-295?
**A:** −11

**Q:** # repeat for C[C@]12CC[C@@H]3c4ccc(O)cc4CC[C@H]3[C@@H]1CC[C@@H]2O [Estradiol, 17β-estradiol]
**A:** −6

**Q:** # repeat for O=C(c1ccc(OCCN2CCCCC2)cc1)c1c(-c2ccc(O)cc2)sc2cc(O)ccc12 [Raloxifene, raloxifene]
**A:** −7

**Q:** # repeat for CC/C(=C(/CC)c1ccc(O)cc1)c1ccc(O)cc1 [DES, Diethylstilbestrol]
**A:** −10

**Q:** # repeat for C[C@]12CC[C@@H]3c4ccc(O)cc4C[C@@H](CCCCCCCCC[S+]([O-])CCCC(F)(F)C(F)(F)F)[C@H]3[C@@H]1CC[C@@H]2O (some centres unmarked) [ICI, ICI 182780]
**A:** −10
